assayed_system: CXCR-4 transfected U87 cell line (U87.CXCR4) (Homo sapiens (Human))
test: Intracellular CXCL-12-induced calcium mobilization assay (FLIPR)
Type: cell-based
test_context: U87.CXCR4 cells, CXCL-12 25-50 ng/mL; read-out: IC50 CXCL-12 Ca2+ flux U87.CXCR4+
pIC50: −log10 of the molar value.
# pIC50 per entry

Some entries whose results are on file:
• Cc1cccnc1[C@@H]1CCC[C@H](c2cn3c(-c4ccccn4)cccc3n2)N1 [Compound I-216] = ≤ 6.00
• Cc1cccnc1[C@@H]1CCC[C@H](c2nc3ccccn3c2[C@@H](O)C2CCN(C)CC2)N1C [Compound I-54] = 7.00 to 11.00
• Cc1cccnc1[C@@H]1CCC[C@H](c2cn3c(N4CCN(C)CC4)cccc3n2)N1C(C)C [Compound I-126] = 7.00 to 11.00

Moving on to another compound below.
Query: pIC50; subject: CCOCc1c([C@H]2CCC[C@@H](c3ncccc3C(C)C)N2C)nc2cccc(N3CCN(CC)CC3)n12 [Compound I-59] ≤ 6.00

* * *

assayed_system: CXCR-4 transfected U87 cell line (U87.CXCR4) (Homo sapiens (Human), UniProt P61073)
Sequence (P61073 whole entry): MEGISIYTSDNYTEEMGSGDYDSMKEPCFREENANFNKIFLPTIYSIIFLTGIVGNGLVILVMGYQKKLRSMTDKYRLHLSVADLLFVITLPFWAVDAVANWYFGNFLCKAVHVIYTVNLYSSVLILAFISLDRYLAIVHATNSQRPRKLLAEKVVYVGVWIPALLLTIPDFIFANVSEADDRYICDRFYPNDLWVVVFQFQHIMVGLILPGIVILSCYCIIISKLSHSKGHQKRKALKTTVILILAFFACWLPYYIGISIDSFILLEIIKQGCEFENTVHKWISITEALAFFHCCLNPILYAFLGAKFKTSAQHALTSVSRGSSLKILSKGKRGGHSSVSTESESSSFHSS
test: Intracellular CXCL-12-induced calcium mobilization assay (FLIPR)
test_context: U87.CXCR4 cells, CXCL-12 25-50 ng/mL; read-out: IC50 CXCL-12 Ca2+ flux U87.CXCR4+
Known IC50 of a selection of molecules

Recorded IC50, per entry:
- Cc1cccnc1[C@@H]1CCC[C@H](c2nc3ccccn3c2CN2CCN(C)CC2)N1C [Compound I-38]: 0.01 to 100 nM
- Cc1cccnc1[C@@H]1CCC[C@H](c2cn3c(-c4ccnn4C)cccc3n2)N1 [Compound I-212]: ≥ 1000 nM
- CC(C)c1cccnc1[C@@H]1CCC[C@H](c2nc3cccc(N4CCN(C)CC4)n3c2Cl)N1C [Compound I-91]: ≥ 1000 nM
- Cc1cccnc1[C@@H]1CCC[C@H](c2nc3ccccn3c2COC2CCCN(C)C2)N1C (some centres unmarked) [Compound I-63]: 100 to 1000 nM

Tell me the measured IC50 of Cc1cccnc1[C@@H]1CCC[C@H](c2cn3c(N4CCN(C)CC4)ccc(N)c3n2)N1C [Compound I-76] , please. 0.01 to 100 nM

* * *

assayed_system: CXCR-4 transfected U87 cell line (U87.CXCR4) (Homo sapiens (Human), UniProt P61073)
test: Intracellular CXCL-12-induced calcium mobilization assay (FLIPR)
test_context: U87.CXCR4 cells, CXCL-12 25-50 ng/mL; read-out: IC50 CXCL-12 Ca2+ flux U87.CXCR4+
observable: IC50

Use the examples below as a reference point.
* Cc1cccnc1[C@@H]1CCC[C@H](c2nc3cccc(N4CCN(C)CC4)n3c2C)N1C | 0.01 to 100 nM
* CN1CCN(c2cccc3nc([C@H]4CCC[C@@H](c5ncccc5Cl)N4)cn23)CC1 (racemic) [Compound I-149] | 0.01 to 100 nM
* Cc1cccnc1[C@@H]1CCC[C@H](c2nc3cccc(N4CCN(C)CC4)n3c2Cl)N1 | 100 to 1000 nM
* Cc1cccnc1[C@@H]1CCC[C@H](c2nc3cccc(N4CCC(N(C)C)CC4)n3c2Cl)N1C | 0.01 to 100 nM
* COc1cccnc1[C@@H]1CCC[C@H](c2cn3c(N4CCN(C)CC4)cccc3n2)N1 | 100 to 1000 nM
* Cc1cccnc1[C@@H]1CCC[C@H](c2nc3cccc(N4CCN(C5CC5)CC4)n3c2CO)N1C | 100 to 1000 nM

Fill in: IC50 of Cc1cccnc1[C@@H]1CCC[C@H](c2nc3cccc(N4CCN(C(C)C)CC4)n3c2Cl)N1C is ___ 0.01 to 100 nM

Another molecule to look at: Cc1cccnc1[C@@H]1CCC[C@H](c2cn3c(N4CCN(C5CC5)CC4)cccc3n2)N1C 100 to 1000 nM

Similarly, Cc1cccnc1[C@@H]1CCC[C@H](c2cn3c(N4CCN(C)CC4)c(F)ccc3n2)N1C ? 0.01 to 100 nM

Do the same for Cc1cccnc1[C@@H]1CCC[C@H](c2cn3c(N4CCC(N(C)C)CC4)cccc3n2)N1C please 0.01 to 100 nM

Next record, please: CN1CCN(c2cccc3nc([C@H]4CCC[C@@H](c5ncccc5OC(F)(F)F)N4C)cn23)CC1 100 to 1000 nM

Then CN1CCN(c2cccc3nc([C@H]4CCC[C@@H](c5ncccc5Cl)N4)cn23)CC1 (single isomer, unassigned) [Compound I-188] ? 0.01 to 100 nM

Would you mind doing CN1[C@@H](c2cn3c(N4CCNC5(CC5)C4)cccc3n2)CCC[C@H]1c1ncccc1Cl as well? 0.01 to 100 nM
